# credit: patent US20120022048A1

Test system: HIV-1 NL 4.3
Experiment: HIV-1 replication in activated T cells (PBMC, p24 Ag ELISA)
Assay type: cell-based
Conditions: activated T cells; 7 days; SPPs and Imatinib 10 μM, HU 100 μM, ddI 2 μM
Description: The experimental setup described below allows us to detect direct antiviral activity of a compound. Human PBMC, obtained from healthy, normal donors, were stimulated for two days with PHA 5 μg/ml. Then cells were infected with HIV-1 NL 4.3, IL-2 was added (20 U/ml), cells were plated (10^5 cells per well in 200 μl) and drug treatment started. […] The control was left untreated. After 7 days of incubation at 37° C. supernatants were harvested and HIV-1 p24 Ag was measured by ELISA.
Observation type: HIV activated cells (% p24 compared to not treated control) (%)

{"Compound": "BrC(Cn1ncc2c(NC3CCCCC3)ncnc21)c1ccccc1 (stereo not drawn) [VS1-007]", "Result number": 70.6}
{"Compound": "CSc1nc(NCc2ccccc2Cl)c2cnn(CC(Cl)c3ccccc3)c2n1 (stereo not drawn) [VS1-036]", "Result number": 22.1}
{"Compound": "CSc1nc(Nc2cccc(Cl)c2)c2cnn(CC(Cl)c3ccc(F)cc3)c2n1 (stereo not drawn) [VS1-022]", "Result number": 37.1}
{"Compound": "CSc1nc(N2CCCCCC2)c2cnn(CC(Cl)c3ccccc3)c2n1 (stereo not drawn) [VS1-034]", "Result number": 65.0}
{"Compound": "C(=Cn1ncc2c(N3CCCCCC3)ncnc21)c1ccccc1 [VS1-001]", "Result number": 12.5}
{"Compound": "OCCNc1nc(NCc2ccccc2)c2cnn(C=Cc3ccccc3)c2n1 [VS1-015]", "Result number": 15.3}
